System: Histone deacetylase 2 (Homo sapiens, UniProt Q92769) | Read-out: IC50 | Origin: multiple publications
Sequence (Q92769 whole entry): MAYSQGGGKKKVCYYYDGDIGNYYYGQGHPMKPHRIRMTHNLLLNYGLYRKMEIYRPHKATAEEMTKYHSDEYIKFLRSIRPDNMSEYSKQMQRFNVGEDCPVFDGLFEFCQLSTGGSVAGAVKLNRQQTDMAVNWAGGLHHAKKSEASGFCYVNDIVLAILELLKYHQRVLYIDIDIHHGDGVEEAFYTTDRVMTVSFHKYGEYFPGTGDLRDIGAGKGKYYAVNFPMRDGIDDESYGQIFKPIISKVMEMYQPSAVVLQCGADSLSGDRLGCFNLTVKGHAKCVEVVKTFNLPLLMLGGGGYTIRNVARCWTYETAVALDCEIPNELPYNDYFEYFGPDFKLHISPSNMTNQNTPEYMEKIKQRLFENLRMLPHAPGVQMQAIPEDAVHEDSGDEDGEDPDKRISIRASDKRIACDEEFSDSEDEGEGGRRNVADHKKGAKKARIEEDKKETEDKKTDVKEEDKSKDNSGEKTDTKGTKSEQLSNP
readoutType: IC50 (nM)

# structureNotation, studyTarget, measurement
records = [
    ("Nc1ccc(F)cc1NC(=O)c1ccc(CNC(=O)/C=C/c2cccnc2)cc1", "Histone deacetylase 2 (Homo sapiens, UniProt Q92769)", 93),
    ("NC(=O)[C@@H]1Cc2c([nH]c3ccccc23)[C@@H](c2ccc(/C=C/C(=O)NO)cc2)N1", "Histone deacetylase 2 (Homo sapiens, UniProt Q92769)", 450),
    ("NC(=O)[C@@H]1Cc2c([nH]c3ccccc23)[C@H](c2ccc(/C=C/C(=O)NO)cc2)N1", "Histone deacetylase 2 (Homo sapiens, UniProt Q92769)", 450),
    ("NC(=O)[C@H]1Cc2c([nH]c3ccccc23)[C@H](c2ccc(/C=C/C(=O)NO)cc2)N1", "Histone deacetylase 2 (Homo sapiens, UniProt Q92769)", 3320),
    ("Cc1c(F)c(N)cc(C(=O)Nc2cc(-c3ccc(NC(=O)CCCCCCC(=O)NO)cc3)ccc2N2CCN(C)CC2)c1Cl", "Histone deacetylase 2 (Homo sapiens, UniProt Q92769)", 99),
    ("C[C@@H]1CN(Cc2ccc(CC(=O)CNO)cc2)C[C@H]1c1nc2c(cnn2C2CCOCC2)c(=O)[nH]1", "Histone deacetylase 2 (Homo sapiens, UniProt Q92769)", 1250),
    ("Cc1[nH]c2ccccc2c1C[C@@H](NCc1ccc(/C=C/C(=O)NO)cc1)C(N)=O", "Histone deacetylase 2 (Homo sapiens, UniProt Q92769)", 530),
    ("NC(=O)[C@@H](Cc1c[nH]c2ccccc12)NCc1ccc(/C=C/C(=O)NO)cc1", "Histone deacetylase 2 (Homo sapiens, UniProt Q92769)", 420),
    ("O=C(Cc1ccc(/C=C/C(=O)c2ncc[nH]2)cc1)Nc1ccc(F)cc1", "Histone deacetylase 2 (Homo sapiens, UniProt Q92769)", 2100),
]
